tested on: T. congolense; assay: In vitro drug sensitivity test on cultured bloodstream forms, 48 h; type: cell-based; details: 48 h exposure, 34 °C
PARAMETER: IC50

INSERT INTO assay_data (molecule, parameter, result) VALUES
  ('CC[n+]1c(-c2ccccc2)c2cc(N=NNc3cccc(C(=N)N)c3)ccc2c2ccc(N=NNc3cccc(C(=N)N)c3)cc21 [Composé disubstitué pur]', 'IC50', '66,27 ± 14,37 ng/ml'),
  ('CC[n+]1c(-c2ccccc2)c2cc(N/N=N/c3cccc(C(=N)N)c3)ccc2c2ccc(N)cc21 [Isométamidium pur]', 'IC50', '0,56 ± 0,05 ng/ml'),
  ('CC[n+]1c(-c2ccccc2)c2cc(N)ccc2c2ccc(N=NNc3cccc(C(=N)N)c3)cc21 [Isomère rouge]', 'IC50', '3,63 ± 0,55 ng/ml'),
  ('CC[n+]1c(-c2ccccc2)c2c(N=Nc3cccc(C(=N)N)c3)c(N)ccc2c2ccc(N)cc21 [Isomère bleu, reference compound]', 'IC50', '7,11 ± 0,76 ng/ml');
